- assayRemarks: In vivo pharmacokinetics, oral, mice
- Design: species or system Balb/c mice
- measurementContext: 5 mg/kg oral, plasma
Each record is given criterion met if its reported t1/2absorption is strictly below 40 min. Records at or above 40 min are given criterion not met.

compound	categoryLabel
C[C@]1(COc2ccc(-c3cc(COc4ccc(OC(F)(F)F)cc4)on3)cc2)Cn2cc([N+](=O)[O-])nc2O1	criterion met
C[C@]1(COc2ccc(-n3cc(COc4ccc(OC(F)(F)F)cc4)nn3)cc2)Cn2cc([N+](=O)[O-])nc2O1	criterion met
C[C@]1(COc2ccc(N3CCC(Oc4ccc(OC(F)(F)F)cc4)CC3)cc2)Cn2cc([N+](=O)[O-])nc2O1 [OPC-67683, reference compound]	criterion met
C[C@]1(COc2cccc(-n3cc(COc4ccc(OC(F)(F)F)cc4)nn3)c2)Cn2cc([N+](=O)[O-])nc2O1	criterion not met

* * *

Measured Cytotoxicity, listed per entry for reference.
- Test system: macrophage J774 cells line
- assayRemarks: Cytotoxicity assay (MTT) in macrophage J774 cells
- Format: cell-based
- measurementContext: J774 cells, 24 hrs, MTT
attributeMeasured: Cytotoxicity

CCc1ccc(-c2cn(-c3ccc(OC[C@@]4(C)Cn5cc([N+](=O)[O-])nc5O4)cc3)nn2)cc1 >40 µg/mL
C[C@]1(COc2cccc(-n3cc(-c4ccc(OC(F)(F)F)cc4)nn3)c2)Cn2cc([N+](=O)[O-])nc2O1 >40 µg/mL
C[C@]1(COc2ccc(-c3cc(-c4ccc(F)cc4F)on3)cc2)Cn2cc([N+](=O)[O-])nc2O1 >40 µg/mL
C[C@]1(COc2cccc(-n3cc(COc4ccc(OC(F)(F)F)cc4)nn3)c2)Cn2cc([N+](=O)[O-])nc2O1 >40 µg/mL

* * *

- Tested on: macrophage J774 cells line
- assayRemarks: Cytotoxicity assay (MTT) in macrophage J774 cells
- Assay type: cell-based
- measurementContext: J774 cells, 24 hrs, MTT

compound	system	Cytotoxicity
C[C@]1(COc2ccc(-n3cc(-c4cccc(OC(F)(F)F)c4)nn3)cc2)Cn2cc([N+](=O)[O-])nc2O1 [IA12]	macrophage J774 cells line	>40 µg/mL
C[C@]1(COc2ccc(S(=O)(=O)N3CCCC3)cc2)Cn2cc([N+](=O)[O-])nc2O1 [IIC9]	macrophage J774 cells line	>40 µg/mL
Cc1ccc(-c2cc(-c3ccc(OC[C@@]4(C)Cn5cc([N+](=O)[O-])nc5O4)cc3)no2)cc1 [IC6]	macrophage J774 cells line	>40 µg/mL
C[C@]1(COc2ccc(-n3cc(-c4ccccc4)nn3)cc2)Cn2cc([N+](=O)[O-])nc2O1 [IA1]	macrophage J774 cells line	>40 µg/mL
C[C@]1(COc2ccc(-n3cc(-c4ccc(F)cc4)nn3)cc2)Cn2cc([N+](=O)[O-])nc2O1 [IA3]	macrophage J774 cells line	>40 µg/mL
C[C@]1(COc2ccc(-n3nnnc3-c3ccc(C(F)(F)F)cc3)cc2)Cn2cc([N+](=O)[O-])nc2O1 [IB5]	macrophage J774 cells line	>40 µg/mL
C[C@]1(COc2ccc(-c3cc(COc4ccc(OC(F)(F)F)cc4)on3)cc2)Cn2cc([N+](=O)[O-])nc2O1 [IC13]	macrophage J774 cells line	>40 µg/mL
CCCCCCCc1cn(-c2ccc(OC[C@@]3(C)Cn4cc([N+](=O)[O-])nc4O3)cc2)nn1 [IA16]	macrophage J774 cells line	>40 µg/mL
C[C@]1(COc2ccc(-n3nnnc3Oc3ccc(OC(F)(F)F)cc3)cc2)Cn2cc([N+](=O)[O-])nc2O1 [IB10]	macrophage J774 cells line	>40 µg/mL
CC(C)c1ccc(-c2cn(-c3ccc(OC[C@@]4(C)Cn5cc([N+](=O)[O-])nc5O4)cc3)nn2)cc1 [IA9]	macrophage J774 cells line	>40 µg/mL
C[C@]1(COc2ccc(-n3cc(-c4cccc(F)c4)nn3)cc2)Cn2cc([N+](=O)[O-])nc2O1 [IA10]	macrophage J774 cells line	>40 µg/mL
CC(C)c1ccc(OCc2cn(-c3cccc(OC[C@@]4(C)Cn5cc([N+](=O)[O-])nc5O4)c3)nn2)cc1 [IA38]	macrophage J774 cells line	>40 µg/mL
C[C@]1(COc2ccc(S(=O)(=O)N3CCOCC3)cc2)Cn2cc([N+](=O)[O-])nc2O1 [IIC10]	macrophage J774 cells line	>40 µg/mL
C[C@]1(COc2ccccc2-n2cc(-c3ccc(OC(F)(F)F)cc3)nn2)Cn2cc([N+](=O)[O-])nc2O1 [IA23]	macrophage J774 cells line	>40 µg/mL
C[C@]1(COc2ccc(-c3cc(-c4ccc(OC(F)(F)F)cc4)on3)cc2)Cn2cc([N+](=O)[O-])nc2O1 [IC10]	macrophage J774 cells line	>40 µg/mL

* * *

- System: M. tuberculosis H37Rv
- assayRemarks: Combination studies, checkerboard method
- Type: cell-based, Mycobacterium tuberculosis
- measurementContext: checkerboard, alone
attributeMeasured: MIC alone (µg/mL)

molecule	recordedMeasurement
CO[C@H]1/C=C/O[C@@]2(C)Oc3c(C)c(O)c4c(O)c(c(/C=N/N5CCN(C)CC5)c(O)c4c3C2=O)NC(=O)/C(C)=C\C=C\[C@H](C)[C@H](O)[C@@H](C)[C@@H](O)[C@@H](C)[C@H](OC(C)=O)[C@@H]1C [Rifampicin, reference compound]	0.12
NNC(=O)c1ccncc1 [INH, isoniazid, reference compound]	0.25
C[C@]1(COc2ccc(NC(=O)Nc3ccc(C(F)(F)F)cc3)cc2)Cn2cc([N+](=O)[O-])nc2O1 [IIA3]	0.5
CC[C@@H](CO)NCCN[C@@H](CC)CO [Ethambutol, reference compound]	1
C[C@]1(COc2ccc(-n3cc(COc4ccc(OC(F)(F)F)cc4)nn3)cc2)Cn2cc([N+](=O)[O-])nc2O1 [IA25]	0.12

* * *

Measured log10(AUC), listed per entry for reference.
- assayRemarks: In vivo pharmacokinetics, oral, mice
- Design: species or system Balb/c mice
- measurementContext: Balb/c, mouse; 5 mg/kg oral, plasma
attributeMeasured: log10(AUC) (log10 of the value in µM·h)

compound	log10(AUC)
C[C@]1(COc2ccc(-n3cc(COc4ccc(OC(F)(F)F)cc4)nn3)cc2)Cn2cc([N+](=O)[O-])nc2O1	1.15
C[C@]1(COc2ccc(N3CCC(Oc4ccc(OC(F)(F)F)cc4)CC3)cc2)Cn2cc([N+](=O)[O-])nc2O1 [OPC-67683, reference compound]	0.97
C[C@]1(COc2ccc(-c3cc(COc4ccc(OC(F)(F)F)cc4)on3)cc2)Cn2cc([N+](=O)[O-])nc2O1	1.53
C[C@]1(COc2ccc(-c3cc(COc4ccc(F)cc4)on3)cc2)Cn2cc([N+](=O)[O-])nc2O1	0.19
C[C@]1(COc2cccc(-n3cc(COc4ccc(OC(F)(F)F)cc4)nn3)c2)Cn2cc([N+](=O)[O-])nc2O1	0.60

* * *

- assayRemarks: In vivo pharmacokinetics, oral, mice
- Parameters: species or system Balb/c mice; unit not given here
- measurementContext: 5 mg/kg oral, plasma
Measured Ka, listed per entry for reference.
attributeMeasured: Ka

C[C@]1(COc2ccc(-c3cc(COc4ccc(OC(F)(F)F)cc4)on3)cc2)Cn2cc([N+](=O)[O-])nc2O1 1.21
C[C@]1(COc2ccc(-n3cc(COc4ccc(OC(F)(F)F)cc4)nn3)cc2)Cn2cc([N+](=O)[O-])nc2O1 1.71
C[C@]1(COc2ccc(-c3cc(COc4ccc(F)cc4)on3)cc2)Cn2cc([N+](=O)[O-])nc2O1 1.056
C[C@]1(COc2cccc(-n3cc(COc4ccc(OC(F)(F)F)cc4)nn3)c2)Cn2cc([N+](=O)[O-])nc2O1 0.478

* * *

- System: M. tuberculosis H37Rv (ATCC 27294)
- assayRemarks: MIC by broth dilution method, M. tuberculosis H37Rv
- Format: cell-based
- measurementContext: Mycobacterium tuberculosis, 504 h, broth dilution, 3 weeks; read-out: MIC M. tb H37Rv
Measured MIC, listed per entry for reference.

compound	MIC
C[C@]1(COc2ccc(S(=O)(=O)N3CCCCC3)cc2)Cn2cc([N+](=O)[O-])nc2O1 [IIC7]	1 µg/mL
C[C@]1(COc2ccc(S(=O)(=O)Nc3ccc(C(F)(F)F)cc3)cc2)Cn2cc([N+](=O)[O-])nc2O1 [IIB3]	2 µg/mL
C[C@]1(COc2cccc(-n3cc(-c4ccc(C(F)(F)F)cc4)nn3)c2)Cn2cc([N+](=O)[O-])nc2O1 [IA18]	2 µg/mL
C[C@]1(COc2ccc(-n3nnnc3-c3ccccc3)cc2)Cn2cc([N+](=O)[O-])nc2O1 [IB1]	2 µg/mL

* * *

- assayRemarks: In vivo pharmacokinetics, oral, mice
- Parameters: species or system Balb/c mice
- measurementContext: Balb/c, mouse, plasma, po, 5 mg/kg, 5 mg/kg oral
attributeMeasured: Cmax

C[C@]1(COc2ccc(-c3cc(COc4ccc(OC(F)(F)F)cc4)on3)cc2)Cn2cc([N+](=O)[O-])nc2O1 2530 nM
C[C@]1(COc2cccc(-n3cc(COc4ccc(OC(F)(F)F)cc4)nn3)c2)Cn2cc([N+](=O)[O-])nc2O1 595 nM
C[C@]1(COc2ccc(-n3cc(COc4ccc(OC(F)(F)F)cc4)nn3)cc2)Cn2cc([N+](=O)[O-])nc2O1 1020 nM
C[C@]1(COc2ccc(-c3cc(COc4ccc(F)cc4)on3)cc2)Cn2cc([N+](=O)[O-])nc2O1 353 nM

All figures here come from patent US9845330B2.
